// reported growth per item
System: NCI-H460 lung
Test: NCI-60 one-dose screen, 48 h (100 = growth as untreated, 0 = no growth, -100 = all killed)
Conditions: 10 µM unless noted
This is part of a sample that, as a whole, favours compounds with a hit. Of some 83,000 tested, about 20% had one in any assay. Calls of active or inactive are those of the source. Rule for the calls: active = growth percent below 10; inactive = the rest.

Please review the following examples before continuing.
growth in this record for COc1cc(-c2nc3ccc(C)cc3[nH]2)ccc1OCc1nnc(-c2ccc(Br)cc2)o1 : 31.3% (inactive)

COc1ccc(/C=C2\C(=N)N=C(SCc3nc4ccccc4[nH]3)NC2=O)cc1 yielded growth of 105% (inactive)

For reference, reported growth for COc1ccc(N2N=C(c3ccc4c(c3)OCO4)CC2c2cccc(NC(=O)CCCNS(=O)(=O)c3ccc(F)cc3)c2)cc1 (centres undefined) stands at 50.6% (inactive)

Consider the additional compound presented here.
Consider O=C(COc1ccc2c(c1)CCCC(=O)N2)NCc1ccccc1 . Its measured growth is 104% (inactive)

* * *

System: U251 CNS
Experiment: NCI-60 one-dose screen, 48 h (100 = growth as untreated, 0 = no growth, -100 = all killed)
Settings: 10 µM unless noted
Procedure: Growth inhibition of the U251 human tumor cell line is measured as a screen for anti-cancer activity. Cells are grown in 96 well plates and exposed to the test compound for 48 hours. Compounds are tested at a single concentration, which is 10^-5 M for most compounds. The reported endpoint is percent growth (GI% or GIPRCNT), where numbers from 0 - 100% represent growth inhibition, and numbers from -100% - 0 represent cell death. For example, a value of 40 represents 60% growth inhibition. […]
The panel holds about 83,000 compounds, 20% with a hit somewhere; the sample as a whole holds those more often.
recorded_metric: growth (%)
I only need the number, in %, no unit after it.

For COc1cc(-c2ccc(/C=N/NC(=O)c3[nH]c4ccc(Br)cc4c3-c3ccccc3)o2)cc(OC)c1OC the compound record lists growth as 40.6

Kindly note the recorded growth for O=C(NNc1nc2cc(F)ccc2n2c(CN3CC4CNCC4C3)ccc12)c1ccncn1 (centres undefined) , which is 9.87

What the record says about COc1ccc(C(=O)/C=C/c2ccc3ccccc3c2)cc1S(N)(=O)=O : growth is -96.3

In the following, a different compound is considered.
growth recorded for this compound, O=c1cc(-c2ccccc2)oc2cc(OCCCC[P+](c3ccccc3)(c3ccccc3)c3ccccc3)cc(O)c12 , is -57.4

* * *

Tested on: HOP-92 NSCLC
Assay: NCI-60 one-dose screen, 48 h
Details: 10 µM unless noted
This is part of a sample that, as a whole, favours compounds with a hit. Of some 83,000 tested, about 20% had one in any assay. Active and inactive are the calls of the source. The calls were made as follows: active = growth percent below 10; inactive = the rest.
Permitted responses: active, inactive

Call for entry O=C1c2c(c3c4cc(F)ccc4oc3c3[nH]c4ccc(Br)cc4c23)C(=O)N1O :
active

Name the outcome recorded for Nc1nc(C(F)(F)F)cs1 in the assay.
inactive

* * *

System: SF-295 CNS
Experiment: NCI-60 one-dose screen, 48 h
Details: 10 µM unless noted
Protocol: Cells are grown in 96 well plates and exposed to the test compound for 48 hours. Compounds are tested at a single concentration, which is 10^-5 M for most compounds. The reported endpoint is percent growth (GI% or GIPRCNT), where numbers from 0 - 100% represent growth inhibition, and numbers from -100% - 0 represent cell death. For example, a value of 40 represents 60% growth inhibition. A value of 0 means no net growth occurred over the course of the experiment. […]
The panel holds about 83,000 compounds, 20% with a hit somewhere; the sample as a whole holds those more often. The source made the active and inactive calls. How the source made its calls: active means growth percent below 10; inactive means the rest.
Valid outcomes are listed here; reply with one: active, inactive

So what was the verdict on COc1c(F)ccc(C(=O)Nc2ccc3nc(NC(=O)C4CCCN(S(=O)(=O)c5ccc(Br)s5)C4)sc3c2)c1F (stereo not drawn) in this test?
inactive

Continuing:
Which outcome did this test record for the compound COc1cc(OC)cc(-c2cc3ccc(N(C)C)cc3c(=O)[nH]2)c1 ?
inactive

Write down the call the test reported for this compound. Item: COc1ccc(C(=O)/C=C/c2ccccc2Br)cc1S(N)(=O)=O
active

Look up the recorded call for COc1ccc(C(=O)/C=C/c2ccc(OCc3ccc(F)cc3)c(OC)c2)cc1OC in this test.
inactive

Test call for this compound, please: O=C1NC(=O)/C(=C/c2ccccc2OCc2cc3ccccc3nc2Cl)S1
inactive

Call for entry COc1cccc(-c2c(C#N)c(-c3ccc(Cl)cc3)nc3n[nH]c(-c4ccc(Cl)cc4)c23)c1 :
inactive

* * *

Tested on: HT29 colon
Assay: NCI-60 one-dose screen, 48 h (100 = growth as untreated, 0 = no growth, -100 = all killed)
Conditions: 10 µM unless noted
The panel holds about 83,000 compounds, 20% with a hit somewhere; the sample as a whole holds those more often.
Please note: T applies when growth is 60% or greater, and F applies otherwise.

Check out these entries, answers already filled in.
Does N#Cc1c(-c2cccc(O)c2O)cc(-c2ccc3ccccc3c2)[nH]c1=O have a reported growth of at least 60%?
T

Please tell me: is the molecule COc1cc2c(c(OC)c1OC)C(=O)CC(c1cccc(NC(=O)c3cc(NC(=O)[C@H](CO)NC(=O)OC(C)(C)C)ccc3Cl)c1)O2 (stereo not given in full) at or over 60% in terms of growth?
F

---
# bool: growth of CN1CCN(c2ccc(C(=O)/C=C/c3cc(C(F)(F)F)cc(C(F)(F)F)c3)cc2)CC1 >= 60%
F

Check the entry CSc1ccc(C(=O)Nc2ccc3nnn(/C(C#N)=C/c4ccccn4)c3c2)cc1 : does growth equal or exceed 60%?
F

* * *

Test system: HCC-2998 colon
Test: NCI-60 one-dose screen, 48 h
Settings: 10 µM unless noted
This is part of a sample that, as a whole, favours compounds with a hit. Of some 83,000 tested, about 20% had one in any assay. Active and inactive are the calls of the source. The calls were made as follows: active = growth percent below 10; inactive = the rest.
Field 'call' accepts Yes (active), No (inactive)

Examples from the recorded data:
Which outcome was entered for the compound COc1ccc2[nH]c(=O)c(CSc3nccc(-c4ccc(OC)c(OC)c4)n3)cc2c1 in this test?
No

Test call for this compound, please: C=CC[N+](C)(C)CCn1c2ccccc2c2nc3cc(C)c(C)cc3nc21
No

// return assay outcome for COc1cc(/C=C2\C(=N)N=C(SCc3nc4ccccc4[nH]3)NC2=O)ccc1O
No

More entries:
// param item: COc1ccc2c(c1)c(-c1cc3nc(-c4cn(C)c5ncc(Br)cc45)cc(N)n3n1)cn2C ; yields the recorded call
Yes

* * *

growth reference
System: KM12 colon
Test: NCI-60 one-dose screen, 48 h (100 = growth as untreated, 0 = no growth, -100 = all killed)
Conditions: 10 µM unless noted
About 83,000 compounds went through this panel and 20% of them were active in at least one assay; those are over-represented in the sample as a whole.
State just the number; it will be interpreted in %.

Worked set:
Value of growth reported for the compound CC(=O)OC[C@@]1(C)C2CC[C@]3(C)C(CC=C4C5CC(C)(C)CC[C@]5(C(=O)Nc5cccc(C)c5)CC[C@]43C)[C@@]2(C)C[C@@H](OC(C)=O)[C@@H]1OC(C)=O (some centres undefined) is 48.7

Field growth (entry COc1cc(C2CC(c3ccc(S(=O)(=O)NCCNc4nc(Nc5ccc(F)cc5)nc(N(C)C)n4)cc3)=Nc3c(N)nc(N)nc3N2)cc(OC)c1OC (centres undefined) ) reads 95.5

Note to self: growth recorded for NS(=O)(=O)c1ccc(CCNC(=O)CSc2ccc(-c3ccc(Br)cc3)nn2)cc1 was 66.4

Now consider the entry below.
In plain terms, O=C(NN1C(=O)/C(=C/C=C/c2ccc([N+](=O)[O-])o2)SC1=S)c1ccccc1O has a documented growth of -83.5

* * *

Test system: M14 melanoma
Assay: NCI-60 one-dose screen, 48 h (100 = growth as untreated, 0 = no growth, -100 = all killed)
Settings: 10 µM unless noted
The panel holds about 83,000 compounds, 20% with a hit somewhere; the sample as a whole holds those more often.
recorded_metric: growth (%)
A number alone suffices; assume %.

Past entries and their recorded results:
So, O=c1[nH]c2ccccc2cc1CSc1nccc(-c2ccc3ccccc3c2)n1 ? Its growth was 56.1

Entry Cn1cc(-c2cc3nc(-c4cn(C)c5ncccc45)cc(N)n3n2)c2cc(Cl)ccc21 — recorded growth = -90.8

Per the record, COc1ccc2c(c1)c(/C=N/Nc1ccc3ccccc3n1)cn2C has growth of -6.98

Lab book: growth of C=C1CC[C@@H]2[C@]3(C)COC(c4cn[nH]c4-c4cccc(Cl)c4)O[C@@H]3CC[C@@]2(C)[C@@H]1C/C=C1/C(=O)OCC1O (stereo partly drawn) noted as -73.4

New cases:
Note to self: growth recorded for CCCCCCCS(=O)(=O)N1CCCC(C(=O)Nc2nc3ccc(NC(=O)c4ccc(F)c(OC)c4F)cc3s2)C1 (stereo not drawn) was 72.5

// sample O=C1Nc2cc(Cl)ccc2/C1=C/c1cccc(OCc2ccccn2)c1 , its growth was -9.46

So for C/C(=N\N=C1/C(=O)Nc2ccccc21)c1ccc2c(c1)Nc1ccccc1S2 , the logged growth turned out to be 65

Entry under test: CCCSc1nc(NCCc2c[nH]c3ccccc23)c(C#N)c(-c2ccc(OC)cc2)n1 . Its growth was 63.5

The recorded growth for N/C(=N\c1nc2ccccc2s1)NC(=O)NCCCCCCO is 67.3
